Test system: Candida albicans
protocol text: In vitro Anti-Candida activity, dilutions in Sabouraud's Dextrose Agar (Table III)
Format: cell-based
test parameters: 48 h, strain 6, after 48 hours
measurement name: MIC (µg/mL)
Field: numeric (µg/mL). Do not append units.

Study these solved cases before continuing.
NCc1[nH]c2ccc(Cl)cc2c1-c1ccccc1 : 75
NCc1[nH]c2ccc(Cl)cc2c1-c1ccc(Cl)cc1Cl : 37.5
NCc1[nH]c2ccc(Cl)cc2c1-c1ccccc1F : 75
NCc1[nH]c2ccc(Cl)cc2c1-c1c(F)cccc1F : 150

Now turn to the next compound.
Prompt: Which measured MIC value corresponds to NCc1[nH]c2cc(Br)c(Cl)cc2c1-c1ccccc1 ?
Response: 150
